- assay remarks: NCI Yeast Anticancer Drug Screen. Data for the rad50 strain (AID 155);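 also: 0% = growth of vehicle-only cultures of the same strain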
- experimental parameters: S. cerevisiae rad50 strain growth inhibition; at 50.0 µM (retest, dose inferred, filed as 5.0); stronger effect = higher value
Compounds without any hit were thinned out: in the full panel of roughly 79,000, 15% have a hit.

| molecule | readout units | growth inhibition |
| --- | --- | --- |
| c1ccc(/C(=N\Nc2nc3ccccc3s2)c2ccccn2)cc1 | % | 88 |
| CCCCCCCCCC(=O)NN=C(C)C | % | 54 |
| C=CCOc1ccc2c(c1)CC=C1[C@@H]2CC[C@]2(C)C(=N\O)/C(=N/O)C[C@@H]12 | % | 95 |
| O=C1C=CC(=O)c2c(O)c(N3CCC[C@H]3CO)c(Cl)c(O)c21 | % | 90 |
| N#Cc1ccc([N+](=O)[O-])o1 | % | 97 |
| S=C(N/N=C/c1ccccn1)Nc1ccccn1 | % | 99 |
| Cc1ccc(C)c(N2C(=O)C(=O)C(c3nc4ccccc4o3)C(=O)C2=O)c1 | % | 98 |
| O=C1c2c(O)ccc(O)c2C(=O)c2c(O)ccc(O)c21 | % | 22 |
| COC1/C=C/OC2(C)Oc3c(C)c(OC(C)=O)c4c(c3C2=O)C(=O)C=C(NC(=O)/C(C)=C\C=C\C(C)C(O)C(C)C(O)C(C)C(OC(C)=O)C1C)C4=O (stereo not given) | % | 70 |
| Clc1ccc(-c2cc(-c3cc(-c4ccc(Cl)c(Cl)c4)n[nH]3)[nH]n2)cc1Cl | % | 68 |
| CN(C)CC(C)(C)/C(=N\Nc1ccccc1)c1ccccc1 | % | 82 |
| Cc1ccc(S(=O)(=O)N2CCN3C(=O)c4ccccc4C32c2ccc(F)cc2)cc1 (stereo not given) | % | 95 |
| CC(/C=C/c1cccs1)=N\C(=S)NC(N)=S | % | 0 |
| Cc1c2cc(Cl)ccc2cc2c1ccc1ccccc12 | % | 5 |
| C1C2OC2C2C1C1CC2C2OC12 (stereo not given) | % | -3 |
| O=C(/C=C/C(=O)OCCCl)OCCCl | % | 95 |
| COc1ccc(C(=O)Nc2ccc(O)c(=O)cc2)cc1 | % | 42 |
| Cn1c2ccccc2c2nnc(N/N=C/c3ccccn3)nc21 | % | 98 |
| O=C1C=CC(=O)C(Sc2ccccc2)=C1 | % | 98 |
| COC(=O)[C@H]1O[C@H]1c1ccncc1 | % | -5 |
| CCCCOP(=O)(OCCCC)C(NS(=O)(=O)c1ccccc1)(C(=O)OCC)C(F)(F)F (stereo not given) | % | 42 |
| CC(=O)C(=Cc1ccc(C=C(C(C)=O)C(C)=O)cc1)C(C)=O | % | 30 |
| CCCOc1ccc(-c2nc(-c3ccc(N=Cc4ccc(N(CCOS(C)(=O)=O)CCOS(C)(=O)=O)cc4C)cc3)cs2)cc1 | % | 82 |
| c1cc[c]([Sn]([NH]c2ncnc3[nH]cnc23)([NH]c2ncnc3[nH]cnc23)[c]2ccccc2)cc1 | % | 93 |
| O=S(=O)(Cl)c1ccc(Br)cc1 | % | 99 |

----------
- assay remarks: NCI Yeast Anticancer Drug Screen. Data for the sgs1 mgt1 strain (AID 161);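 also: 0% = growth of cultures given vehicle only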
- experimental parameters: S. cerevisiae sgs1 mgt1 strain, at 50.0 µM, stronger effect = higher value
- Protocol: Growth inhibition of yeast strains with defined genetic alterations is measured as a screen for potential anti-cancer activity. Selected strains with alterations in DNA damage repair or cell cycle control were exposed to compounds and growth inhibition was measured relative to vehicle treated controls. The strain used in this assay is sgs1 mgt1
The panel holds about 79,000 compounds, 15% with a hit somewhere; the sample as a whole holds those more often.
// values below are reported growth inhibition
measured property: growth inhibition (%)

| chemical smiles | value reported |
| --- | --- |
| CC1=C(C(=O)Nc2cc(O)ccc2O)C(c2cccc([N+](=O)[O-])c2)C(C(=O)Nc2cc(O)ccc2O)=C(C)N1 | 35.9 |
| C=C(Cl)C(=NC(C)(C)C)Nc1ccccc1C | 81.4 |
| CCOC(=N)CCCSSc1ccc(N=[N+]=[N-])cc1 | 99 |

----------
- assay remarks: NCI Yeast Anticancer Drug Screen. Data for the sgs1 mgt1 strain (AID 161);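 also: 0% = growth of cultures given vehicle only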
- experimental parameters: S. cerevisiae sgs1 mgt1 strain, at 5.0 µM (retest, dose inferred, filed as 0.5), stronger effect = higher value
About 79,000 compounds went through this panel and 15% of them were active in at least one assay; those are over-represented in the sample as a whole. Calls of active or inactive are those of the source. Cut-off read from the data, not from the text of the source: active = growth inhibition above about 70%; inactive = the rest.
// values below are reported growth inhibition

| molecule | growth inhibition |
| --- | --- |
| CC(C)(CCBr)[N+](=O)[O-] | -61% (inactive) |
| CN1c2ccccc2C(C)(C)C12C=Cc1cc(O)ccc1O2 (stereo not given) | 8% (inactive) |
| Cc1ccc(SSCCCCCS(=O)O)cc1 | 3% (inactive) |
| O=C(C[n+]1ccc2ccccc2c1)c1ccc(-c2ccccc2)cc1 | -3% (inactive) |
| OCC(O)C(O)C(O)C(O)C(O)C(/C=N/Nc1ccccc1)=N/Nc1ccccc1 (stereo not given) | 0% (inactive) |
| C=C1C[C@@]2(OC)OCC[C@H]3C(C)=CCC(C1=O)[C@]32C(=O)OC (stereo not given in full) | 15% (inactive) |
| C=C1CC(C)(COc2ccc3c(C)c(C)c(=O)oc3c2C)OC1=O (stereo not given) | 24% (inactive) |
| Cn1c(N)c(NC(=O)CCl)c(=O)n(C)c1=O | -13% (inactive) |
| CCc1cccc(C(C)(C)C)c1NC(=S)N/C=C(\c1ccccc1)S(=O)Cc1ccccc1 (stereo not given) | 10% (inactive) |
| c1coc(C2=Nc3cccc4cccc(c34)N2)c1 | 36% (inactive) |
| CN(C)N=Nc1ccc(Cl)c2ncccc12 | 0% (inactive) |
| Cc1c(CC=C(c2ccccc2)c2ccccc2)cccc1C[N+](C)(C)C | 99% (active) |
| CCOC(C)c1ccccc1 (stereo not given) | 16% (inactive) |
| Cn1c(C(C)(C)OC(=O)Oc2ccccc2)cnc1[N+](=O)[O-] | 3% (inactive) |
| NS(=O)(=O)c1ccc(NC(=S)/N=C\C(C(=O)c2ccccc2)=C(\O)c2ccccc2)cc1 | 0% (inactive) |
| Nc1nc(-c2ccccc2)c(-c2ccccc2)c(-c2nc(N)nc(-c3ccccc3)c2-c2ccccc2)n1 | -1% (inactive) |
| CCC(=O)OCC(=O)c1ccc(-c2ccccc2)cc1 | -2% (inactive) |
| Clc1ccc2c(NCCCCCCNc3ccnc4cc(Cl)ccc34)ccnc2c1 | -10% (inactive) |
| Cc1cc(N)c2ccccc2[n+]1CCCCCCCCCC[n+]1c(C)cc(N)c2ccccc21 | 98% (active) |
| CCOP(=O)(CCCOc1cc(Cl)c(Cl)cc1Cl)OCC | 14% (inactive) |
| Cc1ccc(/C=C2\CN(C)CC3=C2NC(=S)NC3c2ccc(C)cc2)cc1 (stereo not given) | -31% (inactive) |
| CCCCN(CCCC)Cc1cc(Nc2c3ccc(Cl)cc3nc3ccc(OC)cc23)ccc1O | -19% (inactive) |
| C=Cc1ccc(B2NCCO2)cc1 | -8% (inactive) |
| CC[N+]1(C)CCC(O)(/C=C/c2ccccc2)C(C(=O)/C=C/c2ccccc2)C1 (stereo not given) | 12% (inactive) |
| Cc1ccc(/C=C/C(=O)c2cc(CN(C)C)c(O)c(CN(C)C)c2)cc1 | -1% (inactive) |
| CCCCN(C)C(=S)N/N=C(\C)c1ccccn1 | 97% (active) |
| N#CSCCSC#N | 4% (inactive) |
| O=S1(=O)CS(=O)(=O)OCCCO1 | 7% (inactive) |
| O=[N+]([O-])c1ccc(NSc2ccccc2)cc1 | 5% (inactive) |
| CCN(CC)c1ccc(N=Nc2ccc(-c3nc4cccn(C)c-4n3)cc2)cc1 | -13% (inactive) |
| CCC[CH2][Sn]([CH2]CCC)([O]C(=O)c1cccc(F)c1)[O]C(=O)c1cccc(F)c1 | -1% (inactive) |
| CCN(CC)Cc1cc(N=Nc2c(O)ccc3c(N=Nc4ccc(O)c(CN(CC)CC)c4)c(O)ccc23)ccc1O | 1% (inactive) |
| CCN1/C(=C\c2cc[n+](CC)c3ccccc23)C=Cc2ccccc21 | -1% (inactive) |
| CC(NNC(=S)N(C)C1CCCCC1)c1cc2ccccc2cn1 (stereo not given) | 97% (active) |
| O=C1c2ccccc2NC(=O)C2C1C(c1ccccc1)CC2(O)c1ccccc1 (stereo not given) | 16% (inactive) |
| CCCN(CCC)CC(O)c1cc(-c2ccccc2)nc2c(Cl)cc(Cl)cc12 (stereo not given) | 2% (inactive) |
| COc1ccc2c(C)cc(N/N=C/c3ccc(OC)c4ccccc34)nc2c1 | 66% (inactive) |
| COC(=O)c1ncc(Cl)cc1Cl | 0% (inactive) |
| COC(=O)c1n[nH]c(C)c1N=NN1CCC(C(N)=O)CC1 | -13% (inactive) |
| Oc1c(I)cc(Cl)c2cccnc12 | 46% (inactive) |

Each recorded value in this set is attributed to PubChem BioAssay (NCI).
